- protocol_text: Pharmacokinetic studies in mice
- Assay type: in vivo, mouse
- condition_details: plasma; mouse; oral 10 mg/kg vs intravenous 2 mg/kg in 75% PEG 300+25% D5W
measurement_kind: bioavailability (%)

molecule: C=CC(=O)N1CCN(c2nccnc2Nc2ccc(C(F)(F)F)cn2)CC1
bioavailability (%): 90

molecule: C=CC(=O)N1CCC(c2nccnc2Oc2ccc(C(F)(F)F)nc2)CC1
bioavailability (%): 109

molecule: C=CC(=O)N1CCN(c2nccnc2Nc2ccc(C(F)(F)F)cc2)CC1
bioavailability (%): 94.4

* * *

- System: NCI-H226 cells
- protocol_text: NCI-H226 proliferation assay (Wuxi AppTec)
- Type: cell-based
- condition_details: Homo sapiens, 168 h, 7 days, CellTiter-Glo, top dose 10, 3-fold dilution, 9 doses
measurement_kind: IC50 (µM)

Solved cases (5 shown):
compound: C=C(F)C(=O)N1CCC(c2nccnc2Oc2ccc(C(F)(F)F)cn2)CC1
IC50, µM: 0.104
//
compound: C=CC(=O)N1CCC(c2nccnc2Oc2ccc(C(F)(F)F)nc2)CC1
IC50, µM: 0.028
//
compound: N#C/C=C/C(=O)N1CCN(c2nccnc2Nc2ccc(C(F)(F)F)cc2)CC1
IC50, µM: 0.026
//
compound: C=CC(=O)N1CCC(n2nc(C)cc2C(=O)c2ccc(C(F)(F)F)cc2)CC1
IC50, µM: 0.015
//
compound: C=CC(=O)N1CCC(c2nccnc2Nc2ccc(C(F)(F)F)cn2)CC1
IC50, µM: 0.02

1 = C=CC(=O)N1CC=C(c2nccnc2Oc2cnc(C(F)(F)F)nc2)CC1
2 = C=CC(=O)N1CCC(c2ncccc2Oc2ccc(C(F)(F)F)nc2)CC1
3 = C=C(F)C(=O)N1CC=C(c2nccnc2Nc2ccc(OC(F)(F)F)nc2)CC1
Exam item: Rank the 3 compounds: largest IC50 first, smallest last. Arrange the labels as the request states and list them.
Marked response: 3, 2, 1
